# Test system: CP203
# Test Description: qHTS profiling for inhibitors of Plasmodium falciparum proliferation (AID 504749); note: nearly all actives have a fitted effect of over 60% in size
# Recorded Conditions: P. falciparum in erythrocytes, SYBR Green DNA, 72 h; series mostly up to 28.7 µM
Inconclusive results are not listed. The source made the active and inactive calls. Calls come from the whole dose curve; as a rule, active = well fitted inhibition curve with a large enough effect; inconclusive = small, poorly fitted or top-dose-only effect; inactive = flat fitted curve, though single readings scatter.
In this exercise, the only acceptable responses are 1 (yes) = active, 0 (no) = inactive

Asked: Record request — test call for CCCCNCC(O)c1ccc(O)cc1 (stereo not drawn)
Given back: 0 (no)

Asked: For this molecule, state the assay outcome: C[C@]12CCC(=O)C[C@@H]1CC[C@@H]1[C@@H]2CC[C@]2(C)[C@@H](O)CC[C@@H]12
Given back: 0 (no)

Asked: Can you look up the reported call for ClC(Cl)(Cl)Cl for me?
Given back: 0 (no)

Asked: Tell me the recorded outcome of this test for CCC(C)(S(=O)(=O)CC)S(=O)(=O)CC .
Given back: 0 (no)

Asked: Check the results log: what was the call for CC(=O)OC1CN2CCC1CC2 (stereo not drawn) ?
Given back: 0 (no)

Asked: Which outcome did this test record for the molecule CC(=O)OO ?
Given back: 0 (no)

Asked: // return assay outcome for C=CCN1CCC23c4c5ccc(O)c4O[C@H]2C(=O)CC[C@@]3(O)C1C5 (stereo partly drawn)
Given back: 0 (no)

Asked: What outcome does the record of this test show for CCC1(CC)C(=O)NC(=O)N(C)C1=O ?
Given back: 0 (no)

Asked: Fill in: this test's call for O=P(O)(O)C(Cl)(Cl)P(=O)(O)O is ___
Given back: 0 (no)

Asked: Per the records of this test, what outcome belongs to CN1C2CCC1CC(OC(c1ccccc1)c1ccc(Cl)cc1)C2 (stereo not drawn) ?
Given back: 1 (yes)

Asked: What did this assay record as the result for O=[N+]([O-])c1ccccc1 ?
Given back: 0 (no)

Asked: What outcome does the record of this test show for N#CN ?
Given back: 0 (no)

Asked: Recorded call for C/C(=C\c1csc(C)n1)[C@@H]1C[C@@H]2O[C@]2(C)CCC[C@H](C)[C@H](O)[C@@H](C)C(=O)C(C)(C)[C@@H](O)CC(=O)O1 ?
Given back: 1 (yes)

###

# Test Description: Drug repurposing screens with cells derived from glioblastoma tumor samples (AID 1345199); note: % is set by controls: 0 for no effect and ±100 for the full control effect; nearly all actives have a fitted effect of over 40% in size
# Recorded Conditions: GBM patient neurospheres viability, ATP luminescence, 48 h; at 45.9 µM (top of the series); tumour line B
Results filed as inconclusive are left out. Active and inactive are the calls of the source. The call rests on the fitted dose curve; in most records, active means well fitted inhibition curve with a large enough effect; inconclusive means small, poorly fitted or top-dose-only effect; inactive means flat fitted curve, though single readings scatter.
Provide the reported activity, negative = cell killing of each item.

Asked: Reported activity, negative = cell killing, compound ClC=C(Cl)Cl : ____
Given back: -0.797% (inactive)

Asked: Would you kindly share the measured activity, negative = cell killing for CC(N)Cc1ccc(O)cc1 (stereo unspecified) ?
Given back: -3.82% (inactive)

Asked: Reported activity, negative = cell killing, compound C=C[C@H]1CN2CC[C@H]1C[C@@H]2[C@@H](O)c1ccnc2ccccc12 : ____
Given back: -7.16% (inactive)

Asked: Consider the compound shown here: O=C(OCCN1CCCCC1)C(O)(c1ccccc1)c1ccccc1 What is its recorded activity, negative = cell killing?
Given back: -11.1% (inactive)

Asked: Which value of activity, negative = cell killing has been reported for O=c1[nH]cc(N(CCCl)CCCl)c(=O)[nH]1 in the records?
Given back: -11% (inactive)

Asked: activity, negative = cell killing for O=Cc1ccco1 ?
Given back: -3.46% (inactive)

Asked: What does the data say about its activity, negative = cell killing? Entry: CN(C)[C@H](Cc1ccccc1)c1ccccc1
Given back: -3.48% (inactive)

Asked: Quick one: activity, negative = cell killing for C[C@@H](Cc1ccccc1)N(C)C ?
Given back: -4.88% (inactive)

Asked: Report activity, negative = cell killing for O=CC=O please.
Given back: 0.224% (inactive)

Asked: May I ask what activity, negative = cell killing has been recorded for C[C@]12CC[C@H]3[C@@H](CCC4=C(O)C(=O)CC[C@@H]43)[C@@H]1CC[C@@H]2OC(=O)CCC1CCCC1 ?
Given back: -11.4% (inactive)

Asked: Return reported activity, negative = cell killing; argument: CCN(CC)C(=O)/C(Cl)=C(\C)OP(=O)(OC)OC
Given back: 1.79% (inactive)

Asked: Look at this compound and give its reported activity, negative = cell killing. O=[N+]([O-])c1ccccc1
Given back: -3.33% (inactive)

Asked: Suppose we examine the compound O=C1CCCCC1CN1CCCCC1 (stereo unspecified) ; what activity, negative = cell killing value has been reported?
Given back: -12.3% (inactive)

Asked: Quick check: activity, negative = cell killing of CCCCCl ?
Given back: -5.4% (inactive)

Asked: Name the reported activity, negative = cell killing value associated with the compound Clc1ccc(C2(Cn3cncn3)OCCO2)c(Cl)c1
Given back: -15.5% (inactive)

Asked: What value of activity, negative = cell killing has been reported for the following compound? COc1ccc2c3c1O[C@H]1C(=O)CC[C@H]4[C@@H](C2)N(C)CC[C@]314
Given back: -6.83% (inactive)

Asked: Quick one: activity, negative = cell killing of CNC(=O)OCC[N+](C)(C)C ?
Given back: -5.85% (inactive)

Asked: Give its activity, negative = cell killing value. Item: CN1c2ccccc2C(NCCCCCCC(=O)O)c2ccc(Cl)cc2S1(=O)=O (stereo unspecified)
Given back: -13.7% (inactive)

Asked: I am curious: what activity, negative = cell killing value has been reported for CCCCNCC(O)c1ccc(O)cc1 (stereo unspecified) ?
Given back: -14.1% (inactive)

Asked: Field request: activity, negative = cell killing | item: O=P(O)(O)C(Cl)(Cl)P(=O)(O)O
Given back: 1.35% (inactive)

Asked: What does the record list as activity, negative = cell killing for CCOC(=O)/C=C(C)/C=C/C[C@@H](C)CCCC(C)C ?
Given back: -7.77% (inactive)

Asked: Look up activity, negative = cell killing for this compound: CCC1C(C)=NN=C(c2ccc(OC)c(OC)c2)c2cc(OC)c(OC)cc21 (stereo unspecified)
Given back: -16.7% (inactive)

Asked: GET /values?readout=activity, negative = cell killing&item= C[C@]12C=CC(=O)C=C1CC[C@@H]1[C@@H]2CC[C@]2(C)OC(=O)CC[C@@H]12
Given back: -3.73% (inactive)

Asked: I have this compound here, CCC(C)(S(=O)(=O)CC)S(=O)(=O)CC , and I need its recorded activity, negative = cell killing.
Given back: -9.18% (inactive)

Asked: I would be grateful if you could share the reported activity, negative = cell killing for [2H]C([2H])([2H])[C@H](N)Cc1ccccc1 .
Given back: -8.74% (inactive)

Asked: So what's the measured activity, negative = cell killing for this one? C[C@@H](CO)NC(=O)[C@@H]1C=C2c3cccc4[nH]cc(c34)C[C@H]2N(C)C1
Given back: -4.28% (inactive)

###

# Test Description: P-glycoprotein substrates identified in KB-8-5-11 adenocarcinoma cell line, qHTS therapeutic library screen (AID 1346987); note: nearly all actives have a fitted effect of over 65% in size
# Recorded Conditions: KB-8-5-11 (P-gp overexpressing) viability, CellTiter-Glo, 72 h; series mostly up to 44.5 µM
Inconclusive results are not listed. Active and inactive are the calls of the source. Calls come from the whole dose curve; as a rule, active = well fitted inhibition curve with a large enough effect; inconclusive = small, poorly fitted or top-dose-only effect; inactive = flat fitted curve, though single readings scatter.
Your reply should match one of these outcome classes. active, inactive

Asked: Would you mind telling me which call this test gave C/C(=C\c1csc(C)n1)[C@@H]1C[C@@H]2O[C@]2(C)CCC[C@H](C)[C@H](O)[C@@H](C)C(=O)C(C)(C)[C@@H](O)CC(=O)O1 ?
Given back: active

Asked: Look up the recorded call for CC(N)Cc1ccc(O)cc1 (centres undefined) in this test.
Given back: inactive

Asked: Which outcome was assigned to COc1cc(C(=O)O[C@H]2[C@@H]3C=CO[C@@H](O[C@@H]4O[C@H](CO)[C@@H](O)[C@H](O)[C@H]4O)[C@@H]3[C@@]3(CO)O[C@@H]23)ccc1O in this test?
Given back: inactive

Asked: Record lookup: outcome of this test for CC(C)(O)[C@H]1O[C@H]2CC[C@@]3(C)[C@@](O)(CC[C@H]4Cc5c([nH]c6ccccc56)[C@@]43C)C2=CC1=O ?
Given back: inactive

Asked: Which outcome was assigned to N#CC1(N2CCCCC2)CCCCC1 in this test?
Given back: inactive

Asked: Hello, I am checking results. What call was entered for CC(C)Nc1ccc(Nc2ccccc2)cc1 ?
Given back: active

Asked: Hi, do you know how CCN1C[C@]2(COC(=O)c3ccccc3N3C(=O)C[C@H](C)C3=O)CC[C@H](OC)[C@@]34[C@@H]5C[C@H]6[C@H](OC)[C@@H]5[C@](O)(C[C@@H]6OC)[C@](O)([C@@H](OC)[C@H]23)[C@@H]14 came out in this test?
Given back: inactive

Asked: In this assay, the call recorded for CC1CCC(C(C)C)C(OC(=O)c2ccccc2N)C1 (centres undefined) was what?
Given back: inactive

Asked: Could you check what this test reported for [S]=[Sb](=[S])[S][Sb](=[S])=[S] ?
Given back: inactive

src = PubChem BioAssay (NCATS)
